# assay_summary: reduction of polyQ htt aggregates in cells – imaging, exon1htt(103Q)mCFP cells, high-content imaging, primary screen (AID 483);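 also: compound exposure lasted 3 days before fixation; percent of the per-plate median nuclei count of sample wells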
# test_parameters: exon1htt(103Q)mCFP cell line, aggregate imaging, at 2 µM; measured here: cell count, toxicity
Binary call on nuclei count with cut-off 90%: strictly below means Met, and equality or higher means Not met.

Reference set (6 entries):
COc1cccc2c(=O)cc(C)n(CC(=O)Nc3ccc(C)c(C)c3)c12 | Met
Cc1[nH]nc(-c2ccc(O)c(C)c2O)c1-c1cnn(-c2ccccc2)c1 | Not met
O=C(CCn1c(=O)c2ccccc2n(CC(=O)NCCC2=CCCCC2)c1=O)NCc1ccco1 | Not met
CCOC(=O)c1ccc(CNC(=O)C(Cc2c[nH]c3ccccc23)NC(C)=O)o1 (centres undefined) | Not met
CCn1cc(C(=O)NCC2CCCO2)c(=O)c2cc(S(=O)(=O)N(C)C)ccc21 (centres undefined) | Not met
COc1ccc(CN2C(=O)c3ccccc3C2C(=O)NC2CCCC2)c(OC)c1 (centres undefined) | Met

**Query** Please state whether nuclei count is below 90% for CCOC(=O)Cn1nnnc1CN(Cc1ccc(OC)cc1)Cc1cc2cc(C)ccc2[nH]c1=O
**Result** Not met

**Query** Could you do the same for Cn1c(SCc2ccc3c(c2)OCO3)nnc1-c1ccccc1 , please?
**Result** Not met

**Query** Could you do the same for CCOc1ccccc1N1CCN(S(=O)(=O)c2cccc3nsnc23)CC1 , please?
**Result** Not met

**Query** Could you do the same for COc1ccccc1N1CCN(Cc2nnnn2CCc2ccccc2)CC1 , please?
**Result** Not met

**Query** Could you do the same for COc1cc2[nH]c(=O)n(CCC(=O)N3CCc4ccccc4C3)c(=O)c2cc1OC , please?
**Result** Not met

**Query** Could you do the same for CN(C)S(=O)(=O)c1ccc(C(=O)N2CCCC2c2nc3ccccc3s2)cc1 (centres undefined) , please?
**Result** Not met

**Query** Could you do the same for COc1ccc(CCN2C(=O)CC(N3CCOCC3)C2=O)cc1 (centres undefined) , please?
**Result** Not met

###

# assay_summary: endothelial E-selectin expression blockers – imaging, HUVEC, immunofluorescence, MLSMR starter and 10KST1 sets, primary screen (AID 487);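 also: 100% = median nuclei count of all wells on the same plate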
# test_parameters: HUVEC TNFalpha-induced E-selectin immunofluorescence imaging, at 2 µM; measured here: cell number, toxicity
outcome_measure: nuclei count (%)
Reply with just the number (in %).

CCCCN(c1ccccc1)S(=O)(=O)c1ccc2c(c1)CCN2C(=O)CCC(=O)O | 117
O=C(NCc1ccccc1)N[C@@H](Cc1ccccc1)C(=O)O | 111
CCCc1cc(=O)n2[nH]c(-c3ccc(Br)cc3)cc2n1 | 119

**Query** Given CCN(CC)C(=O)C1CCN(CC2CC=CCC2)CC1 (stereo not drawn) , state its recorded nuclei count.
**Result** 76.6

**Query** Could you do the same for Cc1ccc(C)c(N(CC(=O)NC2CCCC2)C(=O)CCCC(=O)Nc2ccccn2)c1 , please?
**Result** 95.7

**Query** Could you do the same for COc1ccc(-c2nsc(SCC(=O)Nc3cc(C)on3)n2)cc1 , please?
**Result** 64.4

**Query** Could you do the same for O=C(O)c1ccc2noc(-c3ccccc3)c2c1 , please?
**Result** 123

**Query** Could you do the same for CC(=O)Nc1ccc(S(=O)(=O)N2CCN(C(=O)CCC3CCCC3)CC2)cc1 , please?
**Result** 129

###

Some molecules, each annotated with its measured nuclei count.
# assay_summary: endothelial E-selectin expression blockers – imaging, HUVEC, immunofluorescence, MLSMR starter and 10KST1 sets, primary screen (AID 487);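 also: 100% = median nuclei count of all wells on the same plate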
# test_parameters: HUVEC TNFalpha-induced E-selectin immunofluorescence imaging, at 2 µM; measured here: cell number, toxicity
Reply with just the number (in %).

Study these solved cases before continuing.
CCOC(=O)Cn1c(S(=O)(=O)Cc2ccccc2)nc2ccccc21 | 127
CCOc1ccc(CCN2C(=O)C3C4C=CC(C4)C3C2=O)cc1OCC (centres undefined) | 112
CCOc1ccc(-c2noc(-c3ccncc3)n2)cc1OCC | 117

**Query** Given COCCn1c(=NC(=O)CSC(C)=O)sc2cc(F)ccc21 , state its recorded nuclei count.
**Result** 106

**Query** Could you do the same for O=C(c1ccc(Cl)cc1)N1CCCOC1 , please?
**Result** 111

**Query** Could you do the same for CCN(CC)S(=O)(=O)c1ccc(N2CCCC2)c(C(=O)OCC(=O)/C(C#N)=C(\C)N)c1 , please?
**Result** 101

**Query** Could you do the same for O=C(COC(=O)C1=COCCO1)Nc1ccccc1Oc1ccccc1 , please?
**Result** 103

**Query** Could you do the same for COc1ccccc1-n1c(SCC(N)=O)nnc1-c1ccccc1 , please?
**Result** 80.6

**Query** Could you do the same for CSc1ncc(Cl)c(C(=O)Nc2ccc(S(=O)(=O)N3CCOCC3)cc2)n1 , please?
**Result** 131

**Query** Could you do the same for CCn1c(C)nc2cc(C(=O)OC(C(F)(F)C(F)F)C(F)(F)C(F)F)ccc21 , please?
**Result** 93.6

**Query** Could you do the same for Cc1ccc(O)c(-c2cc(C(=O)Nc3ccc(S(=O)(=O)N4CC(C)OC(C)C4)cc3)[nH]n2)c1 (centres undefined) , please?
**Result** 92.7

**Query** Could you do the same for CC(C)(C)c1ccc2c(c1)OCC(C(=O)O)O2 (centres undefined) , please?
**Result** 90.7

###

Some compounds, each annotated with its measured inhibition.
# assay_summary: TLR3 IRF3 reporter activation blockers – cell-based, poly I:C stimulus, luciferase, 10K MLSCN set, primary screen (AID 602277)
# test_parameters: HEK293-TLR3 RL24 IRF3 luciferase reporter, at 10 µM, stronger effect = higher value
Reply with just the number (in %).

COc1cccc(NC(=O)Cc2nnc(SCC(=O)c3ccccc3)n2C)c1 | 10.1
COC(=O)c1cc(=O)n(Cc2ccc3c(c2)OCO3)c(=Nc2ccccc2)s1 | 27.1

**Query** Given CC12CCC(C(=O)O)(c3nc(C#N)c(C#N)nc31)C2(C)C (stereo not given) , state its recorded inhibition.
**Result** 21.6

**Query** Could you do the same for COc1ccc(NC(=O)c2ccco2)cc1NC(=O)c1cccs1 , please?
**Result** -14.2

**Query** Could you do the same for CCC(=O)N1CCc2cc(S(=O)(=O)CCC(=O)Nc3c(C)n(C)n(-c4ccccc4)c3=O)ccc21 , please?
**Result** 13.1

**Query** Could you do the same for COc1ccc(C/C(O)=C(\C#N)c2nc3ccccc3s2)cc1 , please?
**Result** 6.03

**Query** Could you do the same for Clc1ccc(OCCCn2cncn2)cc1Cl , please?
**Result** -19.6

**Query** Could you do the same for O=S(=O)(c1ccc(F)cc1)N1CCC(N2CCCC2)CC1 , please?
**Result** 45.9

**Query** Could you do the same for Cc1cc(NC(=O)CCC(=O)N(CCc2ccccc2)C(C(=O)NC2CCCC2)c2ccco2)no1 (stereo not given) , please?
**Result** 19.1

**Query** Could you do the same for CC(=O)C1=C(C)OC(N)=C(C#N)C1c1ccncc1 (stereo not given) , please?
**Result** 16.8

**Query** Could you do the same for COc1cc(S(=O)(=O)NC2CCCCC2C)ccc1Cl (stereo not given) , please?
**Result** -3.48

**Query** Could you do the same for CC(C)CCNC(=O)C(c1ccco1)N(CC1CCCO1)C(=O)Cn1nnc2ccccc21 (stereo not given) , please?
**Result** 16.4

###

# assay_summary: TLR3 IRF3 reporter activation blockers – cell-based, poly I:C stimulus, luciferase, 10K MLSCN set, primary screen (AID 602277)
# test_parameters: HEK293-TLR3 RL24 IRF3 luciferase reporter, at 10 µM, stronger effect = higher value
outcome_measure: inhibition (%)
Reply with just the number (in %).

CCC(=O)Nc1ccc(NC(=O)CSc2nnnn2C(C)C)cc1 | 16.2
O=C(C1CCN(c2nnc(-n3cccc3)s2)CC1)N1CCN(Cc2ccc3c(c2)OCO3)CC1 | -31.5

Next compound, inhibition to be filled in.
**Query** Given Cc1cc(=O)n(CC(C)C)c(O)c1C#N , state its recorded inhibition.
**Result** -7.21

###

# assay_summary: inhibitors of TNFa-induced NFkB p65 translocation, primary screen, imaging, HUVEC, MLSMR starter and 10KST1 sets (AID 438);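 also: compound added about 3h40 before a 20 min TNFalpha stimulation; signal is the nuclear over cytoplasmic p65 intensity ratio per well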
# test_parameters: HUVEC TNFa-induced p65 nuclear translocation; at 2 µM, stronger effect = higher value, 0% TNFa-plus-vehicle, 100% no-TNFa wells
Calls of active or inactive are those of the source.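 The calls were made as follows: active = inhibition above 20% together with a positive visual image hit; inconclusive = visual image hit but inhibition not above 20%; inactive = no visual image hit.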
Some compounds, each annotated with its measured inhibition.

Study these solved cases before continuing.
COCC(C)NC(=O)CCS(=O)(=O)c1nc(-c2ccc(OC)cc2)cc(C(F)(F)F)n1 (stereo not drawn) | 7.9% (inactive)
CC(C)COC(=O)C(C#N)c1nc2ccccc2nc1N1CCN(Cc2ccccc2)CC1 (stereo not drawn) | 4.2% (inactive)
O=C(Nc1ccccc1)N(CCCN1CCOCC1)Cc1cc2cc3c(cc2[nH]c1=O)OCCO3 | 8% (inactive)

**Query** Given CCSC1(SCC)N=C(N)C2(C#N)C(c3ccccc3)NC(C)=C(C)C12C#N (stereo not drawn) , state its recorded inhibition.
**Result** 2% (inactive)

**Query** Could you do the same for CCN(CC(=O)O)S(=O)(=O)c1cc(Cl)ccc1Cl , please?
**Result** 5.6% (inactive)

**Query** Could you do the same for O=C(CSc1nnnn1C1CCCC1)NCc1ccc2c(c1)OCO2 , please?
**Result** -13.2% (inactive)

**Query** Could you do the same for C(=N\n1cnnc1)/c1cccc(OCCOc2ccccc2)c1 , please?
**Result** 7.1% (inactive)

**Query** Could you do the same for CCOC(=O)Cc1csc(NC(=O)CSc2nnc(C3CC3)n2C)n1 , please?
**Result** -11.2% (inactive)
